Quick list: %Inh per entry.
Test system: MAP3K1
assay_context: concentration: 1 μM,replicates: in singlicate; n = 1;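 further: KINOMEscan kinase panel screen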
quantity_name: %Inh (%)

INSERT INTO measurements (compound, target_or_system, quantity_name, numeric_value) VALUES
  ('NC(=O)Nc1sc(-c2ccc(F)cc2)cc1C(N)=O [GW789449]', 'MAP3K1', '%Inh', 10),
  ('O=C(Nc1cccc(C(F)(F)F)c1)c1cccc(Oc2ccc3nccn3n2)c1', 'MAP3K1', '%Inh', 21),
  ('Cc1ccc(Nc2ccnc(Nc3ccc4c(c3)CS(=O)(=O)C4)n2)cc1O.Cl [GW579362]', 'MAP3K1', '%Inh', 27),
  ('Cc1ccn2nc(-c3ccc(F)cc3)c(-c3ccncc3)c2c1.Cl [GW457859]', 'MAP3K1', '%Inh', 0),
  ('CNC(=O)c1ccccc1Nc1nc(Nc2cccc(CS(C)(=O)=O)c2)ncc1C.O=CO [GSK1520489]', 'MAP3K1', '%Inh', 10),
  ('Cn1cc(-c2cccc3c(N)c(C(N)=O)nnc23)cn1', 'MAP3K1', '%Inh', 29),
  ('CCCC(=O)Nc1n[nH]c2ncccc12 [SB-601436]', 'MAP3K1', '%Inh', 0),
  ('N#Cc1cccc(C(=O)NC2CCN(c3ccnc(Nc4ccc(F)cc4)n3)C2)c1 (stereo not shown) [GSK1379708]', 'MAP3K1', '%Inh', 1),
  ('NC(=O)c1ccc(-c2cc3ncnc(SCC(=O)O)c3s2)cc1', 'MAP3K1', '%Inh', 0),
  ('CC(C)S(=O)(=O)N1CCN(Cc2ccc3c(c2)nc(NC(=O)c2ccsc2)n3C[C@H](O)c2ccccc2)CC1 [GW635815]', 'MAP3K1', '%Inh', 8),
  ('C[C@@H]1CNc2c(sc3ccc4nc(-c5ccncc5)ccc4c23)C(=O)N1', 'MAP3K1', '%Inh', 0),
  ('COc1cc2ncn(-c3cc(OCC4CCCCC4)c(C(N)=O)s3)c2cc1OC [GSK204559]', 'MAP3K1', '%Inh', 30),
  ('COc1ccc(Nc2nccc(N3CCC(NC(=O)c4cccc(C#N)c4)C3)n2)cc1 (stereo not shown) [GSK1379730]', 'MAP3K1', '%Inh', 1),
  ('O=C(Nc1cccc(Oc2ccc3nccn3n2)c1)Nc1cccc(C(F)(F)F)c1', 'MAP3K1', '%Inh', 17),
  ('CC(=O)Nc1ccc(-c2cc3ncnc(SCC(=O)O)c3s2)cc1', 'MAP3K1', '%Inh', 16),
  ('CN(c1cccc(CNc2nc(Nc3ccc4c(c3)CC(=O)N4)ncc2C(F)(F)F)c1)S(C)(=O)=O', 'MAP3K1', '%Inh', 0),
  ('O=C(Nc1ccccc1)c1cccc(Oc2ccc3nccn3n2)c1', 'MAP3K1', '%Inh', 10),
  ('Cl.Nc1n[nH]c2cc(-c3ccccn3)ccc12 [GSK2189892]', 'MAP3K1', '%Inh', 0),
  ('OCCn1cc(-c2cnc3nnn(Cc4ccc5ncccc5c4)c3n2)cn1', 'MAP3K1', '%Inh', 0);

---

Tested on: CDK3
assay_context: concentration: 1 μM,replicates: in singlicate; n = 1
Overview of reported %Inh across a group of molecules:
quantity_name: %Inh (%)

INSERT INTO results (molecule, quantity_name, numeric_value) VALUES
  ('COC(=O)c1cccc(NC(=O)NC2CCN(c3ccnc(NCc4ccc(F)cc4)n3)CC2)c1 [GSK1379860]', '%Inh', 9),
  ('Cc1ccc(Nc2ccnc(Nc3ccc4c(c3)CS(=O)(=O)C4)n2)cc1O.Cl [GW579362]', '%Inh', 77),
  ('CCOC(=O)N1CCC(n2cnc(-c3ccc(F)cc3)c2-c2ccnc(N)n2)CC1 [SB-219952]', '%Inh', 0),
  ('C[C@@H]1CNc2c(sc3ccc4nc(-c5ccncc5)ccc4c23)C(=O)N1', '%Inh', 0),
  ('O=C(NCC1CC1)c1ccc(-c2cc(C(=O)NC3CC3)ccc2F)cc1 [GW810445]', '%Inh', 7);

Hello, the source for this data is paper PMC5540273, in case you need it.
